- assay_target: T1, human IL-4Rα (interleukin 4 receptor subunit alpha) (human, UniProt P24394 26-232, limits assumed)
- T1 sequence (looked up): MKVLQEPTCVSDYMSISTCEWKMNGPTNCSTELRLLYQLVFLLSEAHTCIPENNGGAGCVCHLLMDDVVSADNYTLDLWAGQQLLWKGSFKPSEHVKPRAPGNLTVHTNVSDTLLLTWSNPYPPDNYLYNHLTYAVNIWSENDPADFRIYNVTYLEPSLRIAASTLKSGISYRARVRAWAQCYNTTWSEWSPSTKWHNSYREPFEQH
- protocol_details: SPR, Carterra LSA non-regenerative capture kinetics; antibody captured on goat anti-human polyclonal lawn, human IL-4Rα as analyte, 25 C, 1:1 model; average ± SD of technical replicates
value_type: pKd
# pKd: negative log10 of molar concentration; output just the value

Below, 4 binders whose answers are already recorded.
Query string: Give recorded pKd. AB-8c (antibody, human IgG4 S228P, kappa, V domains shown, hIgG4 WT, kappa) VH: EVQLVESGGGLEQPGGSLRLSCAGSGFTFRDYAMTWVRQAPGKGLEWVSSISGSGSNTYYADSVKGRFTISRDNSKNTLYLQMNSLRAEDTAVYYCAKDRLTASVRPNYYGLDVWGQGTTVTVSS VL: DIVMTQSPLSLPVTPGEPASISCRSSQSLLYSEGYNYLDWYLQKSGQSPQLLIYLASNRASGVPDRFSGSGSGTDFTLKISRVEAEDVGFYYCMQSLTTPYTFGQGTKLEIKR
Result string: 9.07

Query string: Read the entry AB-11c (antibody, human IgG4 S228P, kappa, V domains shown, hIgG4 WT, kappa) VH: EVQLVESGGGLEQPGGSLRLSCAGSGFTFRDYAMTWVRQAPGKGLEWVSSISGSGTNTYYADSVKGRFTISRDNSKNTLYLQMNSLRAEDTAVYYCAKDRLSVSTRPKYYGLDVWGQGTTVTVSS VL: DIVMTQSPLSLPVTPGEPASISCRSSQSLDYSYGYNYLDWYLQKSGQSPQLLIYLASNRASGVPDRFSGSGSGTDFTLKISRVEAEDVGFYYCMQSLHTPYTFGQGTKLEIKR and write its reported pKd.
Result string: 9.08

Query string: Identify measured pKd corresponding to AB-2c (antibody, human IgG4 S228P, kappa, V domains shown, hIgG4 WT, kappa) VH: EVQLVESGGGLEQPGGSLRLSCAGSGFTFRDYAMTWVRQAPGKGLEWVSSISGSGSNTYYADSVKGRFTISRDNSKNTLYLQMNSLRAEDTAVYYCARDRLTAAVRPYYYGLDVWGQGTTVTVSS VL: DIVMTQSPLSLPVTPGEPASISCRSSQSLDYSSGYNYLDWYLQKSGQSPQLLIYLASNRASGVPDRFSGSGSGTDFTLKISRVEAEDVGFYYCMQSLQTPYTFGQGTKLEIKR
Result string: 7.30

Query string: Tell me measured pKd for AB-7c (antibody, human IgG4 S228P, kappa, V domains shown, hIgG4 WT, kappa) VH: EVQLVESGGGLEQPGGSLRLSCAGSGFTFRDYAMTWVRQAPGKGLEWVSSISGSGSTTYYADSVKGRFTISRDNSKNTLYLQMNSLRAEDTAVYYCAKDRLTASVRPIYVGLDVWGQGTTVTVSS VL: DIVMTQSPLSLPVTPGEPASISCRSSQSLLYSEGYNYLDWYLQKSGQSPQLLIYLASNRASGVPDRFSGSGSGTDFTLKISRVEAEDVGFYYCMQTLKTPYTFGQGTKLEIKR please.
Result string: 9.52

Below: the item to evaluate.
Query string: Item AB-10c (antibody, human IgG4 S228P, kappa, V domains shown, hIgG4 WT, kappa) VH: EVQLVESGGGLEQPGGSLRLSCAGSGFTFRDYAMTWVRQAPGKGLEWVSSISGSGDKTYYADSVKGRFTISRDNSKNTLYLQMNSLRAEDTAVYYCARDRLSSSARPVYVGLDVWGQGTTVTVSS VL: DIVMTQSPLSLPVTPGEPASISCRSSQSLLYSVGKNYLDWYLQKSGQSPQLLIYLASNRASGVPDRFSGSGSGTDFTLKISRVEAEDVGFYYCMQDLFHPYTFGQGTKLEIKR : provide pKd
Result string: 6.26
